- protocol-notes: qHTS of pediatric cancer cell lines to identify multiple opportunities for drug repurposing: Primary screen for Rh41 cells (AID 1347108); further: nearly all actives have a fitted effect of over 70% in size
- cond: Rh41 rhabdomyosarcoma viability, CellTiter-Glo luminescence, 48 h; series mostly up to 46 µM
Records with an inconclusive call do not appear. The source made the active and inactive calls. The call rests on the fitted dose curve; in most records, active means well fitted cell-killing curve with a large enough effect; inconclusive means small, poorly fitted or top-dose-only effect; inactive means no such curve, though single readings can be large or run the other way.
Outcome codes: TRUE (active), FALSE (inactive)

- O=C1CCC(N2C(=O)c3ccccc3C2=O)C(=O)N1 (configuration not stated): FALSE
- C[C@@H]1CN(Cc2ccc(F)cc2)[C@@H](C)CN1C(=O)c1cc2c(C(=O)C(=O)N(C)C)cn(C)c2cc1Cl: TRUE
- COc1ccc2nc(S(=O)Cc3ncc(C)c(OC)c3C)[nH]c2c1 (configuration not stated): FALSE
- CC(C)C[C@H](NC(=O)[C@@H](O)[C@H](N)Cc1ccccc1)C(=O)O: TRUE
- Cc1ccc(N(CC2=NCCN2)c2cccc(O)c2)cc1: FALSE
- Cc1ccnc(NS(=O)(=O)c2ccc(NC(=O)Nc3ccc(S(=O)(=O)Nc4nccc(C)n4)cc3)cc2)n1: FALSE
- Cc1oncc1C(=O)Nc1ccc(C(F)(F)F)cc1: FALSE
- Cc1cnc(NC(=O)C2=C(O)c3ccccc3S(=O)(=O)N2C)s1: FALSE
- CC1(C)SCCN(S(=O)(=O)c2ccc(OCC#CCO)cc2)[C@@H]1C(=O)NO: FALSE
- OC(CN1CCC(Cc2ccc(F)cc2)CC1)c1ccc(Cl)cc1 (configuration not stated): FALSE
- Cc1cccc(-c2nn(C(=S)Nc3ccccc3)cc2-c2ccnc3ccccc23)n1: FALSE
- CC(C)OC(=O)C1=CN(C(=O)c2ccc(F)c(F)c2)CC(C)(C)c2c1[nH]c1ccccc21: FALSE
- O=c1[nH]cnc2[nH]ncc12: FALSE
- COc1ccc(CCN2CCN(CCCc3ccccc3)CC2)cc1OC: FALSE
- COc1cc2nccc(Oc3ccc(NC(=O)NC4CC4)c(Cl)c3)c2cc1C(N)=O: TRUE
- NC(N)=NC(=O)c1nc(Cl)c(N)nc1N: FALSE
- Cc1ccccc1C(OCCN(C)C)c1ccccc1 (configuration not stated): FALSE
- COc1ccccc1-c1cccc(-c2c(O)c3cc(C#N)c(Cl)cc3[nH]c2=O)c1: FALSE
- Clc1cccc(Cl)c1NC1=NCCN1: FALSE
- CN(C)c1ccc(Nc2nc(N)n(C(=O)c3c(F)cccc3F)n2)cc1: FALSE
- C#Cc1cccc(Nc2ncnc3cc(OCCOC)c(OCCOC)cc23)c1: TRUE
- COc1ccc(COc2cc3oc(=O)c4cc(C(C)O)ccc4c3cc2OC)cc1 (configuration not stated): TRUE

* * *

- Tested on: CAOV3
- protocol-notes: Primary qHTS to identify gynecologic anti-cancer compounds using libraries of approved drugs and bioactive compounds (AID 1345084); further: nearly all actives have a fitted effect of over 55% in size
- cond: Gynecologic cancer cell panel viability, ATPlite luminescence, 48 h; series mostly up to 57.5 µM
- From the text: National Center for Advancing Translational Sciences [NCATS] Assay Overview: Chemotherapeutic drug responses vary from cancer to cancer and from patient to patient. […] ATPlite is a luminescence based assay reliant on the conversion of a luciferase substrate to light in the presence of ATP. As a cytotoxic compound will suppress growth and decrease the number of cells, the concentration of ATP will decrease, and less light signal will be detected in the well. […]
Results filed as inconclusive are left out. The source made the active and inactive calls. Calls follow the shape of the dose curve; as a rule, active = well fitted cell-killing curve with a large enough effect; inconclusive = small, poorly fitted or top-dose-only effect, or effect the other way; inactive = flat fitted curve, though single readings scatter.
measurement-type: outcome

- OCCn1cc(-c2cnc3nnn(Cc4ccc5ncccc5c4)c3n2)cn1: inactive
- NNCCc1ccccc1: inactive
- Nc1ccc(S(=O)(=O)Nc2ccnn2-c2ccccc2)cc1: inactive
- CCCC(CCC)C(=O)O: inactive
- O=C(Nc1cccnc1)N1CCC(Cc2cccc(Oc3ccc(C(F)(F)F)cn3)c2)CC1: inactive
- CCCCNc1cc(C(=O)O)cc(S(N)(=O)=O)c1Oc1ccccc1: inactive
- N=c1nc(N2CCCCC2)cc(N)n1O: inactive

Entry source: PubChem BioAssay (NCATS)
